Where do the numbers come from? From PubChem BioAssay (NCI).

- Test system: OVCAR-3 ovarian
- PROCEDURE TEXT: NCI-60 one-dose screen, 48 h
- COND: 10 µM unless noted
This is part of a sample that, as a whole, favours compounds with a hit. Of some 83,000 tested, about 20% had one in any assay. Calls of active or inactive are those of the source. The calls were made as follows: active = growth percent below 10; inactive = the rest.
Form entry, call: pick from YES = active, NO = inactive

| COMPOUND | TARGET OF ASSAY | CLASS |
| --- | --- | --- |
| COc1ccc(C(=O)c2cc(OC)c(OC)c(OC)c2)cc1OC(C)=O | OVCAR-3 ovarian | YES |
| Oc1c(CCl)cc(Cl)cc1CCl | OVCAR-3 ovarian | NO |
| COC(=O)[C@H](Cc1c[nH]c2ccccc12)NC(=O)[C@@H](OC)[C@@H]1Cc2cc3cc(OC4CC(OC5CC(O)C(O)C(C)O5)C(O)C(C)O4)c(C)c(O)c3c(O)c2C(=O)[C@H]1OC1CC(OC2CC(OC3CC(C)(O)C(O)C(C)O3)C(O)C(C)O2)C(O)C(C)O1 (some centres undefined) | OVCAR-3 ovarian | YES |

Any idea what this test logged for Cc1c(O)c(CN(CCCl)CCCl)cc(CN(CCCl)CCCl)c1O ?
NO

Any idea what this test logged for O=c1[nH]c2ccc([N+](=O)[O-])cc2c(=O)o1 ?
NO

Any idea what this test logged for CCOC(=O)N[C@H]1CCc2c(Br)c(OC)c(OC)c(OC)c2-c2ccc(SC)c(=O)cc21 ?
YES

Any idea what this test logged for CC(C)(N)Cc1ccccc1 ?
NO

Any idea what this test logged for COc1ccc(N(CC(=O)NCCC[Te]c2ccccc2)C(=O)CNC(=O)OC(C)(C)C)cc1 ?
NO

Any idea what this test logged for CNC(=O)Oc1ccc2c(c1)OCO2 ?
NO
